assay: Ratio of drug uptake in medulla to cerebellum in anesthetized cynomolgus monkey after 165 mins postinjection; format: ADME, organism-based, Macaca fascicularis; conditions: in vivo, 2.75 h
reportedProperty: Ratio

>>> experimentalresult("O=C(OCC[18F])C1C2CCC(CC1c1cccc(/C=C\\Br)c1)N2 (stereo not given)")
1.8
>>> experimentalresult("O=C(OCC[18F])C1C2CCC(CC1c1cccc(/C=C\\I)c1)N2 (stereo not given)")
1.7
>>> experimentalresult("O=C(OCCC[18F])C1C2CCC(CC1c1cccc(/C=C\\I)c1)N2 (stereo not given)")
1.9
>>> experimentalresult("O=C(OCCC[18F])C1C2CCC(CC1c1cccc(/C=C\\Br)c1)N2 (stereo not given)")
1.7
>>> experimentalresult("O=C(OCC[18F])C1C2CCC(CC1c1ccc(/C=C\\I)cc1)N2 (stereo not given)")
2.6

// provenance: ChEMBL document CHEMBL1151757
